- study_system: recombinant Plk1 (Homo sapiens, UniProt P53350)
- Sequence (P53350 whole entry): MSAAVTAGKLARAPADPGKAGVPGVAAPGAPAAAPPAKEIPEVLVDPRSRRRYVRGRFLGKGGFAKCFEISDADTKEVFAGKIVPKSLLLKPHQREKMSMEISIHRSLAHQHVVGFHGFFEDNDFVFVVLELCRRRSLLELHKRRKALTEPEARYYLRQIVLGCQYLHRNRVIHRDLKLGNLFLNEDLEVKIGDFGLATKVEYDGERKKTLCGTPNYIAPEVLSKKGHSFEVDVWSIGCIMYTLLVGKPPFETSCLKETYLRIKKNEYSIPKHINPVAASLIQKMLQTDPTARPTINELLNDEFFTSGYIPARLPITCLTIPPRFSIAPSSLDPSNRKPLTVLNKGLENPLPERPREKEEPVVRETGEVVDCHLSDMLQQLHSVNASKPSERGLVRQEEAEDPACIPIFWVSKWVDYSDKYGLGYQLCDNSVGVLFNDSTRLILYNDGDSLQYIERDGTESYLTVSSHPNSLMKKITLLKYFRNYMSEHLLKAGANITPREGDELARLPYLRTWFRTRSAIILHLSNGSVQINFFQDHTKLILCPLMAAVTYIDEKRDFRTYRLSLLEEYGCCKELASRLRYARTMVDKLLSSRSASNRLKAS
- method_description: In Vitro Plk1 Enzyme Assay (SPA, GST-Cdc25C phosphorylation)
- applied_conditions: ATP 64 nM, 90 minutes, read-out: IC50 (Plk1 enzyme inhibition)
pIC50: −log10 of the molar value.
Some molecules, each annotated with its measured pIC50.

Reference set (3 entries):
1) COc1cc(Nc2ncc3c(n2)N(C2CCCC2)CCC(=O)N3C)cc(OC)c1OC [Example 129]
> 6.00
2) CN(C)c1ccc(Nc2ncc3c(n2)N(C2CCCC2)CCC(=O)N3C)cc1 [Example 122]
> 4.00
3) COc1cc(C(=O)N[C@@H]2CC[C@H](C(=O)O)C2)ccc1Nc1ncc2c(n1)N(C1CCCC1)CCC(=O)N2C [Example 87]
> 6.52

Now turn to the next molecule.
Lab book: pIC50 of COc1cc(C(=O)NCCCCN2CCCC2)ccc1Nc1ncc2c(n1)N(C1CCCC1)CCC(=O)N2C [Example 33] noted as > 6.52

----------
- study_system: recombinant Plk1 (Homo sapiens, UniProt P53350)
- method_description: In Vitro Plk1 Enzyme Assay (SPA, GST-Cdc25C phosphorylation)
- applied_conditions: ATP 64 nM, 90 minutes, read-out: IC50 (Plk1 enzyme inhibition)
quantity_name: IC50

1) CCN(CC)CCNC(=O)c1ccc(Nc2ncc3c(n2)N(C2CCCC2)CCC(=O)N3C)c(OC)c1
< 0.3 µM

Measured IC50, COc1cc(C(=O)NCc2ccncc2)ccc1Nc1ncc2c(n1)N(C1CCCC1)CCC(=O)N2C : < 1 µM

----------
- study_system: recombinant Plk1 (Homo sapiens, UniProt P53350)
- method_description: In Vitro Plk1 Enzyme Assay (SPA, GST-Cdc25C phosphorylation)
- applied_conditions: ATP 64 nM, 90 minutes, read-out: IC50 (Plk1 enzyme inhibition)
pIC50: −log10 of the molar value.
quantity_name: pIC50

Below: 5 molecules and their reported pIC50.
1. CN(C)CC(C)(C)CNC(=O)c1ccc(Nc2ncc3c(n2)N(c2ccccc2)CCC(=O)N3C)cc1 [Example 223]
> 6.00
2. COc1cc(C(=O)NCCCN2CCCCCC2)ccc1Nc1ncc2c(n1)N(C1CCCC1)CCC(=O)N2C [Example 70]
> 6.00
3. C#Cc1cccc(Nc2ncc3c(n2)N(C2CCCC2)CCC(=O)N3C)c1 [Example 168]
> 4.00
4. CN1C(=O)CCN(C2CCCC2)c2nc(Nc3ccc(Cl)nc3)ncc21 [Example 266]
> 4.00
5. CN1C(=O)CCN(C2CCCC2)c2nc(Nc3ccc(S(=O)(=O)NCCO)cc3)ncc21 [Example 117]
> 4.00

Quick note, pIC50 for CN1C(=O)CCN(C2CCCC2)c2nc(Nc3cccc(CNC(=O)OC(C)(C)C)c3)ncc21 [Example 136] landed at > 4.00

The molecule listed as CCCN1CC[C@@H](NC(=O)c2ccc(Nc3ncc4c(n3)N(C3CCCC3)CCC(=O)N4C)c(OC)c2)C1 [Example 327] has a reported pIC50 of > 6.52

The molecule listed as COc1cc(C(=O)NC2CCCCC2)ccc1Nc1ncc2c(n1)N(CCN1CCCCC1)CCC(=O)N2C [Example 276] shows pIC50 equal to > 4.00

----------
- study_system: recombinant Plk1 (Homo sapiens)
- method_description: In Vitro Plk1 Enzyme Assay (SPA, GST-Cdc25C phosphorylation)
- applied_conditions: ATP 64 nM, 90 minutes, read-out: IC50 (Plk1 enzyme inhibition)
pIC50: −log10 of the molar value.
quantity_name: pIC50

Previously resolved entries follow.
1) COc1cc(C(=O)NCc2cccnc2)ccc1Nc1ncc2c(n1)N(C1CCCC1)CCC(=O)N2C [Example 76]
> 6.00
2) CN1CC[C@@H](NC(=O)c2cc(Cl)c(Nc3ncc4c(n3)N(C3CCCC3)CCC(=O)N4C)cc2F)C1 [Example 325]
> 6.52
3) CCN1CCC(NC(=O)c2ccc(Nc3ncc4c(n3)N(C3CCCC3)CCC(=O)N4C)c(Cl)c2)CC1 [Example 316]
> 6.52

# compound CNCCNC(=O)c1ccc(Nc2ncc3c(n2)N(C2CCCC2)CCC(=O)N3C)c(OC)c1 [Example 43] ; its pIC50 = > 6.52
